B1: PLK2 (parent)
chain: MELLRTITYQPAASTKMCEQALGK

variants of: B1; assay: protein stability index of a GFP-peptide fusion (GPS, HEK-293T) (PSI 1-6); higher = more stable; settings: c terminus: a fixed tail appended;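 also: lentivirally expressed fusions sorted by FACS into six bins by GFP to DsRed ratio, PSI derived from sequencing read proportions per bin multiplied by bin number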
// protein stability index lookup, one value per entry
Lab note: write the figure by itself, no unit.

Tell me protein stability index reported for `Q10M` 1.99
